# Assay Method Text: Bioavailability of crystalline Forms (I) and (II) in dogs
# Format: in vivo, Beagle dogs
# Applied Conditions: dog, plasma, po, 3 mg/kg, Time 4 h, Dog 5, read-out: concentration in plasma of lercanidipine (S+R)
Counter-ions that a name gives are not always drawn.
Assay Metric: concentration at 4 h (ng/mL)
Hi! Could you send only the number? It should be in ng/mL, unit omitted.

Fill in the blank: the reported concentration at 4 h of COC(=O)C1=C(C)NC(C)=C(C(=O)OC(C)(C)CN(C)CCC(c2ccccc2)c2ccccc2)C1c1cccc([N+](=O)[O-])c1 (single isomer, unassigned) [Form (II), lercanidipine hydrochloride] is ____. 23.7

----------
# Assay Method Text: Bioavailability of crystalline Forms (I) and (II) in dogs
# Format: in vivo, Beagle dogs
# Applied Conditions: dog, plasma, po, 3 mg/kg, Time 0.5 h, Mean (Dog 2 not included), read-out: concentration in plasma of lercanidipine (S+R)
Counter-ions that a name gives are not always drawn.
Assay Metric: concentration at 0.5 h (ng/mL)
Hi! Could you send only the number? It should be in ng/mL, unit omitted.

Fill in the blank: the reported concentration at 0.5 h of COC(=O)C1=C(C)NC(C)=C(C(=O)OC(C)(C)CN(C)CCC(c2ccccc2)c2ccccc2)C1c1cccc([N+](=O)[O-])c1 (single isomer, unassigned) [Form (II), lercanidipine hydrochloride] is ____. 1.4

----------
# Assay Method Text: Bioavailability of crystalline Forms (I) and (II) in dogs
# Assay type: in vivo, Beagle dogs
# Applied Conditions: dog, plasma, po, 3 mg/kg, Time 2 h, Dog 1, read-out: concentration in plasma of lercanidipine (S+R)
Where a name gives a salt, the structure may show the parent alone.
Assay Metric: concentration at 2 h (ng/mL)
Hi! Could you send only the number? It should be in ng/mL, unit omitted.

Fill in the blank: the reported concentration at 2 h of COC(=O)C1=C(C)NC(C)=C(C(=O)OC(C)(C)CN(C)CCC(c2ccccc2)c2ccccc2)C1c1cccc([N+](=O)[O-])c1 (single isomer, unassigned) [Form (II), lercanidipine hydrochloride] is ____. 7.63

----------
# Assay Method Text: Bioavailability of crystalline Forms (I) and (II) in dogs
# Format: in vivo, Beagle dogs
# Applied Conditions: dog, plasma, po, 3 mg/kg, Time 0.5 h, Dog 1, read-out: concentration in plasma of lercanidipine (S+R)
Counter-ions that a name gives are not always drawn.
Assay Metric: concentration at 0.5 h (ng/mL)
Hi! Could you send only the number? It should be in ng/mL, unit omitted.

Fill in the blank: the reported concentration at 0.5 h of COC(=O)C1=C(C)NC(C)=C(C(=O)OC(C)(C)CN(C)CCC(c2ccccc2)c2ccccc2)C1c1cccc([N+](=O)[O-])c1 (single isomer, unassigned) [Form (I), lercanidipine hydrochloride] is ____. 0.1

Origin of measurements: patent EP1432683B9
